test system: MDA-MB-435; experiment: NCI tumour cell line growth inhibition, 48 h
Calls of active or inactive are those of the source. No stated cut-off is given here; in the data, active = GI50 up to about 1.1 µM and inactive = higher.
Response enum: TRUE = active, FALSE = inactive

Below are worked cases with known answers.
{"Molecule": "Nc1n2nc(-c3ccccc3)sc2n[n+]1CC(=O)c1ccccc1", "Answer label": "FALSE"}
{"Molecule": "N=C(N)c1ccc(/N=N/c2c(O)ccc3cc(O)ccc23)cc1", "Answer label": "FALSE"}

Moving on to another molecule below.
### Prompt Each molecule tested received a call. Report the one for COc1cc2c(c(OC)c1OC)-c1ccc(OC)c(=O)cc1C(NC(=O)CCCCCNc1ccc(N=[N+]=[N-])cc1[N+](=O)[O-])CC2 (stereo not drawn) .
### Response TRUE
